- System: M14
- procedure_text: NCI tumour cell line growth inhibition, 48 h
Active and inactive are the calls of the source. Rule as the data show it: active = GI50 up to about 1.1 µM and inactive = higher.
Labels: class 1 for active, class 0 for inactive

{"compound": "O=C(Nc1ccc(N2C(=O)CSC2c2cccs2)cc1)c1ccc(N2C(=O)CSC2c2cccs2)cc1 (centres undefined)", "label": "class 0"}
{"compound": "C=C(C)[C@H]1Cc2c(ccc3c2O[C@@H]2COc4cc(OC)c(OC)cc4[C@@H]2C3=O)O1", "label": "class 1"}
{"compound": "COC(=O)[C@]1(C)CCC[C@]2(C)[C@H]3CC[C@]4(C(C)C)OO[C@@H](O4)[C@]34O[C@@H]4C[C@H]21", "label": "class 0"}
{"compound": "CC(C)O/N=C/c1cc(NC(=S)OC(C)C)ccc1Cl", "label": "class 0"}
{"compound": "CCOC(=O)/C(C#N)=C/c1ccnc2ccccc12", "label": "class 0"}
{"compound": "COc1ccc(OC)c(CC(=O)c2ccc(O)c(C(=O)NCCc3ccc(F)cc3)c2)c1", "label": "class 0"}
{"compound": "O=C(Cc1ccccc1)NN1C(=O)C(Cl)C1c1cc(Br)ccc1O (centres undefined)", "label": "class 0"}
{"compound": "CCCCCN(CCCCC)C(=O)[C@H](CCC(=O)O)NC(=O)c1cc2ccccc2[nH]1", "label": "class 0"}
{"compound": "CCN(CCCN(CC)C(=O)N[C@@H](Cc1ccccc1)C(=O)NC)C(=O)N[C@@H](Cc1ccccc1)C(=O)NC", "label": "class 0"}

* * *

- Tested on: EKVX
- procedure_text: NCI tumour cell line growth inhibition, 48 h
Activity calls are given as the source filed them. Rule as the data show it: active = GI50 up to about 1.1 µM and inactive = higher.

{"compound": "O=c1[nH]c2c(c(=O)[nH]1)SSC2", "target_system": "EKVX", "GI50": "21.3 µM (inactive)"}
{"compound": "CSC1(Cc2ccccn2)C(=O)Nc2cccc([N+](=O)[O-])c21 (stereo not given)", "target_system": "EKVX", "GI50": "> 100 µM (inactive)"}
{"compound": "Cc1c(Cl)cccc1NC(=O)/C=C/c1ccccc1", "target_system": "EKVX", "GI50": "55.8 µM (inactive)"}
{"compound": "O=C(CC(C(=O)c1ccsc1)c1cccs1)c1ccsc1 (stereo not given)", "target_system": "EKVX", "GI50": "49.9 µM (inactive)"}
{"compound": "CCCc1nc(NC#N)nc(C(=O)Nc2ccccc2)c1CC", "target_system": "EKVX", "GI50": "> 100 µM (inactive)"}
{"compound": "Cn1c2c(c3ccccc31)CCN(CCCCN1CCCCC1)C2=O", "target_system": "EKVX", "GI50": "> 100 µM (inactive)"}
{"compound": "COC(=O)[C@]1(C)CCC[C@]2(C)[C@H]3CC[C@]4(C(C)C)OO[C@@H](O4)[C@]34O[C@@H]4C[C@H]21", "target_system": "EKVX", "GI50": "1.87 µM (inactive)"}
{"compound": "Cc1ccc(NC(c2ccccc2)P(=O)(c2ccccc2)c2ccccc2)cc1 (stereo not given)", "target_system": "EKVX", "GI50": "> 100 µM (inactive)"}
{"compound": "CO[C@@H]1O[C@H](C(=O)c2ccccc2)[C@H]2OC(C)(C)O[C@@H]12", "target_system": "EKVX", "GI50": "86.5 µM (inactive)"}
{"compound": "Clc1ccc2c(c1)CC1C[N+]3=C(CCCCC3)C1=C2 (stereo not given)", "target_system": "EKVX", "GI50": "45.6 µM (inactive)"}

All values here come from ChEMBL document CHEMBL1201862.
